# assayed system: human PDE10A2 (Homo sapiens (Human), UniProt Q9Y233)
# Sequence (Q9Y233 267-1055): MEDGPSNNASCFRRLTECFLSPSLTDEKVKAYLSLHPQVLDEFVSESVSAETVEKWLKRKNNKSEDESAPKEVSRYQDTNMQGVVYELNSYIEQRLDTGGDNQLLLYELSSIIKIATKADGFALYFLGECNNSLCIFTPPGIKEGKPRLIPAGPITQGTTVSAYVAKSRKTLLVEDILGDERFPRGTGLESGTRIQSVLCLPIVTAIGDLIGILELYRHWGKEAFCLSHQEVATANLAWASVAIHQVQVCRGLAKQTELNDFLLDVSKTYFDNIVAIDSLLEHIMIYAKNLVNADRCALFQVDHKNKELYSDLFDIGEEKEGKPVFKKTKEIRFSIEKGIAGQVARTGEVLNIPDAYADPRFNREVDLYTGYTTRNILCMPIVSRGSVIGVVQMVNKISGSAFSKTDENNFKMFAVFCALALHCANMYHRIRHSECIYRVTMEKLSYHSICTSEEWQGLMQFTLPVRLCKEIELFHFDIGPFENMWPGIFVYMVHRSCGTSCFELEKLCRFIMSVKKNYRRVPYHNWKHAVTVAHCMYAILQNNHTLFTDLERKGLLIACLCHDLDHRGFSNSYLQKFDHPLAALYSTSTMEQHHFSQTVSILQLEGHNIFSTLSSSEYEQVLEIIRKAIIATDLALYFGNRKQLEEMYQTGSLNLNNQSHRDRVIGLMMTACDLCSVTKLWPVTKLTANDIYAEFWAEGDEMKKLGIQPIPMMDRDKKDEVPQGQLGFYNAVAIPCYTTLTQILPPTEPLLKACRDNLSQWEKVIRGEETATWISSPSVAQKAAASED
pKi: −log10 of the molar value.

>  <compound>
Cc1ccc(NC(=O)N2CCc3nc(-c4ccc(Cl)nc4)nc(OC(C)C)c3C2)cn1 [Compound 1-11]

>  <assayed system>
human PDE10A2 (Homo sapiens (Human), UniProt Q9Y233)

>  <pKi>
9.22

$$$$
>  <compound>
CC(C)Oc1nc(-c2cccnc2)nc2c1CN(c1nc3ccccc3o1)CC2 [Compound 1-18]

>  <assayed system>
human PDE10A2 (Homo sapiens (Human), UniProt Q9Y233)

>  <pKi>
7.80

$$$$
>  <compound>
Cc1ccc(NC(=O)N2CCc3nc(N4CCCC4)nc(OC(C)C)c3C2)cn1 [Compound N-5]

>  <assayed system>
human PDE10A2 (Homo sapiens (Human), UniProt Q9Y233)

>  <pKi>
7.50

$$$$
>  <compound>
CC(C)Oc1nc(-c2cccnc2)nc2c1CN(C(=O)Nc1ccc3ccn(C)c3c1)CC2 [Compound 1-8]

>  <assayed system>
human PDE10A2 (Homo sapiens (Human), UniProt Q9Y233)

>  <pKi>
8.04

$$$$
>  <compound>
COCCOc1nc(-c2ccc(Cl)nc2)nc2c1CN(C(=O)c1ncn3ccccc13)CC2 [Compound Q-2]

>  <assayed system>
human PDE10A2 (Homo sapiens (Human), UniProt Q9Y233)

>  <pKi>
9.00

$$$$
>  <compound>
CC(C)Oc1nc(-c2ccc(Cl)nc2)nc2c1CN(C(=O)c1cn(C)cn1)CC2 [Compound 1-19]

>  <assayed system>
human PDE10A2 (Homo sapiens (Human), UniProt Q9Y233)

>  <pKi>
8.34

$$$$
